test: Stability in human plasma assessed as parent compound remaining at […] measured after 6 hrs by HPLC analysis; type: ADME, cell-free; conditions: read-out: Stability
ASSAY ENDPOINT: remaining at 6 h (%)
// note: answer is a bare numeric in %

Sample CC[C@@H](C)[C@H]1NC(=O)CNC(=O)[C@@H](CCCNC(=N)N)NC(=O)[C@@H](Cc2ccc(O)cc2)NC(=O)[C@H]2CSSC[C@@H](NC1=O)C(=O)N[C@H](Cc1ccc(O)cc1)C(=O)N[C@H](CCCNC(=N)N)C(=O)N[C@H](CCCNC(=N)N)C(=O)N[C@@H](C(=O)N[C@H](CCCNC(=N)N)C(N)=O)CSSC[C@@H](NC(=O)[C@@H](Cc1c[nH]c3ccccc13)NC(=O)[C@H](N)CCCCN)C(=O)N[C@H](Cc1ccccc1)C(=O)N[C@H](CCCNC(=N)N)C(=O)N[C@H](C(C)C)C(=O)N2 ; remaining at 6 h observed: 20

* * *

experiment: Stability in human plasma assessed as parent compound remaining at […] measured after 2 hrs by HPLC analysis; format: ADME, cell-free; details: read-out: Stability
ASSAY ENDPOINT: remaining at 2 h (%)
All answers are understood in %, so give the number only.

Entry CC[C@H](C)[C@@H]1NC(=O)CNC(=O)[C@H](CCCNC(=N)N)NC(=O)[C@H](Cc2ccc(O)cc2)NC(=O)[C@@H]2CSSC[C@H](NC1=O)C(=O)N[C@@H](Cc1ccc(O)cc1)C(=O)N[C@@H](CCCNC(=N)N)C(=O)N[C@@H](CCCNC(=N)N)C(=O)N[C@H](C(=O)N[C@@H](CCCNC(=N)N)C(N)=O)CSSC[C@H](NC(=O)[C@H](Cc1c[nH]c3ccccc13)NC(=O)[C@@H](N)CCCCN)C(=O)N[C@@H](Cc1ccccc1)C(=O)N[C@@H](CCCNC(=N)N)C(=O)N[C@@H](C(C)C)C(=O)N2 ; remaining at 2 h = 20
